Source listed as the supplement of paper PMC6555819.

- Tested on: RXRa homodimer (NR concentration 180 nM)
- Procedure text: PBM binding z-score (relative to random genomic background probes); higher = stronger binding; sequences stand for … in GC…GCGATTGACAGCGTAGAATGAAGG
Measured endpoint: PBM binding z-score
Reply with the value as a number alone.

# Residue sequence, PBM binding z-score
measured = [
    ("TGAATGAAGTTATAAGATCAGGGAACGTTGCAAA", -0.319),
]

Form field PBM binding z-score for item CGAACTAGGTCATCCAGGACATTGAATACATTGA on RXRa homodimer (NR concentration 180 nM): 2.95

Form field PBM binding z-score for item TTACCAAGGTGAGAGGTCGTTGATGCACGCCTTG on RXRa homodimer (NR concentration 180 nM): 3.24

Form field PBM binding z-score for item TCTTGTAGATCAAGCAGGTTAAGCAAGCCTGAGT on RXRa homodimer (NR concentration 180 nM): 0.228

Form field PBM binding z-score for item CCGACTGGGGCATAAGTTTACCATAAGCCAGCCC on RXRa homodimer (NR concentration 180 nM): -0.0212

====

- Test system: THRa:RXRa (NR concentration 90 nM, RXRa partner concentration 90 nM)
- Procedure text: PBM binding z-score (relative to random genomic background probes); higher = stronger binding; sequences stand for … in GC…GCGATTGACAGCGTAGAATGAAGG
Threshold check on PBM binding z-score: at or above 2 gives yes, strictly below gives no.

# Residue sequence, Category label
measured = [
    ("TCATATAGGTAAAGGTGAAACTCGAACGATATGA", "no"),
]

Lookup: # bool: PBM binding z-score of CCTATTGGGCCATTCAGAGGTCATTGATCATATG >= 2
Found: yes

Lookup: # bool: PBM binding z-score of CGAACTAGGCCATTGACAGGACAGTGAATAGTAA >= 2
Found: no

Lookup: # bool: PBM binding z-score of CAAACTAGGTCACGAAAGGTCAAAGACGAATGAC >= 2
Found: yes

Lookup: # bool: PBM binding z-score of ACTCGGAGGACAAAGGTCAGAGCAACGCCAGTGA >= 2
Found: yes

Lookup: # bool: PBM binding z-score of GTGACTGGGGCATCAGCAGGTTACCATAACTTAA >= 2
Found: no

Lookup: # bool: PBM binding z-score of GCGACTGGGGCAAAGCAGGTTACCGTAAGGTTGG >= 2
Found: yes

Lookup: # bool: PBM binding z-score of CGTCCATGGTCATAGGAGGTCAGTGAAGACAGAT >= 2
Found: yes

Lookup: # bool: PBM binding z-score of CCTTTCGGGTCACTCCAGGTTATAGCATCGGAGT >= 2
Found: yes

Lookup: # bool: PBM binding z-score of TCTTGTAGATCATCAGGAGGTTAAGAAAGATCGA >= 2
Found: no

Lookup: # bool: PBM binding z-score of CCTAGTTGTTCAAGGTCACACACGCTATAGGTAC >= 2
Found: yes

Lookup: # bool: PBM binding z-score of TAATATAGGTAATACAGGTGAAAGTCGGCATCTA >= 2
Found: no

Lookup: # bool: PBM binding z-score of CCTACTGGGCCATCAGGTCATCGATATCAACGTT >= 2
Found: yes

Lookup: # bool: PBM binding z-score of TCGAGTAGGTTACCATTGGGGCATTCAGCTTTCT >= 2
Found: no

Lookup: # bool: PBM binding z-score of CGTCCAAGTTCAAGGTCAGTGAAAGAGACTCGAA >= 2
Found: yes

Lookup: # bool: PBM binding z-score of GGAACGAGGGAAAAGTTGATAGCATCTGTCGACG >= 2
Found: no

Lookup: # bool: PBM binding z-score of ATATGTAGGTTATCGGGTCATTCCGTTTGCGCAT >= 2
Found: yes

Lookup: # bool: PBM binding z-score of GCTCGGAGGAAAAGGTCAGAGCTTTGTCCGTAGA >= 2
Found: yes

Lookup: # bool: PBM binding z-score of CCGACTGCGGCAAAGGTTACCATACTCAGTACGA >= 2
Found: no
